Data origin: patent US20050267016A1

tested on: Ramos cells (CD10pos); test: cells; conditions: ratio of IC50
// Ratio Ball-1:Ramos lookup, one value per entry
Reply with the value as a number alone.

# compoundSmiles, quantityMeasured, val
rows = [
    ("CC[C@H](C)[C@H](NC(=O)CCC(=O)O)C(=O)N[C@@H](C)C(=O)N[C@@H](CC(C)C)C(=O)N[C@H]1C[C@H](O[C@H]2C[C@](O)(C(=O)CO)Cc3c(O)c4c(c(O)c32)C(=O)c2c(OC)cccc2C4=O)O[C@@H](C)[C@H]1O", "Ratio Ball-1:Ramos", 4),
    ("CC[C@H](C)[C@H](NC(=O)CCNC(=O)CCC(=O)O)C(=O)N[C@@H](C)C(=O)N[C@@H](CC(C)C)C(=O)N[C@H]1C[C@H](O[C@H]2C[C@](O)(C(=O)CO)Cc3c(O)c4c(c(O)c32)C(=O)c2c(OC)cccc2C4=O)O[C@@H](C)[C@H]1O", "Ratio Ball-1:Ramos", 120),
    ("COc1cccc2c1C(=O)c1c(O)c3c(c(O)c1C2=O)C[C@@](O)(C(=O)CO)C[C@@H]3O[C@H]1C[C@H](NC(=O)CNC(=O)[C@H](C)NC(=O)[C@H](CC(C)C)NC(=O)CCC(=O)O)[C@H](O)[C@H](C)O1", "Ratio Ball-1:Ramos", 1),
]

Let us move to another entry and its Ratio Ball-1:Ramos.
The reported Ratio Ball-1:Ramos value, Ramos cells (CD10pos), for `COc1cccc2c1C(=O)c1c(O)c3c(c(O)c1C2=O)C[C@@](O)(C(=O)CO)C[C@@H]3O[C@H]1C[C@H](NC(=O)[C@H](CC(C)C)NC(=O)[C@H](C)NC(=O)[C@H](CC(C)C)NC(=O)CCNC(=O)CCC(=O)O)[C@H](O)[C@H](C)O1` reads 2
